Reference for the values: patent US5783597A

Biological target: Human Prostaglandin H2 Synthase Typ II (Cox-2) (Homo sapiens, UniProt P35354)
Construct: endogenous in cells
Sequence (P35354 18-604): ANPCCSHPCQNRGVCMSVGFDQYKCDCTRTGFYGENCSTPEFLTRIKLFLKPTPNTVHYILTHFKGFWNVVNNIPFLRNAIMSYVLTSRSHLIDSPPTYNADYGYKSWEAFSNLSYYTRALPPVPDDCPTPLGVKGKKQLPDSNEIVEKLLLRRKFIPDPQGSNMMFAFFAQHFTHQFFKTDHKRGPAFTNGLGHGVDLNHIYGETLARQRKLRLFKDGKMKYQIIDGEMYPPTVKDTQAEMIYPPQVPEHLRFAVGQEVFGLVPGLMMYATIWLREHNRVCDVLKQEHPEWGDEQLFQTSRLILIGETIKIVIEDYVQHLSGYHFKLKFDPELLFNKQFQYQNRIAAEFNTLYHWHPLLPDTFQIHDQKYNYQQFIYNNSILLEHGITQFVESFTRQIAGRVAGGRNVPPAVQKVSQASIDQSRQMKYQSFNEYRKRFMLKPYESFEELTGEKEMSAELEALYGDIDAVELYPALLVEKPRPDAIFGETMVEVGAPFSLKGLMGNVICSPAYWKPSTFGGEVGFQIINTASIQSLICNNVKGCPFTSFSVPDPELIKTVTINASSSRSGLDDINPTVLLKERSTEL
Experiment: Human Prostaglandin H2 Synthase Typ II (Cox-2) Whole Cell Assay, ECV-304 cells (Procedure III)
Settings: ECV-304 whole cells, PGE2 produced; read-out: Procedure III (COX-2) Wh Cell IC50
testReadout: log10 of IC50 (log10 of the value in µM)

{"columns": ["entrySmiles", "assayedTarget", "testReadout", "quantitativeReadout"],
 "data": [
  ["Cc1cc(F)ccc1Oc1ccc(NS(C)(=O)=O)s1", "Human Prostaglandin H2 Synthase Typ II (Cox-2) (Homo sapiens, UniProt P35354)", "log10 of IC50", 0.28],
  ["CS(=O)(=O)Nc1ccc(Oc2ccc(F)cc2Br)s1", "Human Prostaglandin H2 Synthase Typ II (Cox-2) (Homo sapiens, UniProt P35354)", "log10 of IC50", 0.72],
  ["CS(=O)(=O)Nc1ccc(Oc2cccc3ccccc23)s1", "Human Prostaglandin H2 Synthase Typ II (Cox-2) (Homo sapiens, UniProt P35354)", "log10 of IC50", 0.48],
  ["CS(=O)(=O)Nc1ccc(Oc2ccc3ccccc3c2)s1", "Human Prostaglandin H2 Synthase Typ II (Cox-2) (Homo sapiens, UniProt P35354)", "log10 of IC50", 1.00],
  ["CCCCS(=O)(=O)Nc1ccc(Oc2ccccc2)s1", "Human Prostaglandin H2 Synthase Typ II (Cox-2) (Homo sapiens, UniProt P35354)", "log10 of IC50", 1.00],
  ["CS(=O)(=O)Nc1ccc(SC2CCCCC2)s1", "Human Prostaglandin H2 Synthase Typ II (Cox-2) (Homo sapiens, UniProt P35354)", "log10 of IC50", 0.96],
  ["CS(=O)(=O)Nc1ccc(Oc2ccc(F)c(Cl)c2)s1", "Human Prostaglandin H2 Synthase Typ II (Cox-2) (Homo sapiens, UniProt P35354)", "log10 of IC50", 0.72],
  ["CCCCCSc1ccc(NS(C)(=O)=O)s1", "Human Prostaglandin H2 Synthase Typ II (Cox-2) (Homo sapiens, UniProt P35354)", "log10 of IC50", 0.44],
  ["CS(=O)(=O)Nc1ccc(Oc2ccc(F)cc2)s1", "Human Prostaglandin H2 Synthase Typ II (Cox-2) (Homo sapiens, UniProt P35354)", "log10 of IC50", 0.26],
  ["CS(=O)(=O)Nc1ccc(Oc2ccc(Cl)cc2Cl)s1", "Human Prostaglandin H2 Synthase Typ II (Cox-2) (Homo sapiens, UniProt P35354)", "log10 of IC50", 0.76],
  ["CS(=O)(=O)Nc1ccc(Oc2cccc(C(F)(F)F)c2)s1", "Human Prostaglandin H2 Synthase Typ II (Cox-2) (Homo sapiens, UniProt P35354)", "log10 of IC50", 0.01],
  ["CS(=O)(=O)Nc1ccc(Oc2cccc(Cl)c2)s1", "Human Prostaglandin H2 Synthase Typ II (Cox-2) (Homo sapiens, UniProt P35354)", "log10 of IC50", 1.01],
  ["Cc1cccc(Oc2ccc(NS(C)(=O)=O)s2)c1", "Human Prostaglandin H2 Synthase Typ II (Cox-2) (Homo sapiens, UniProt P35354)", "log10 of IC50", 0.23]
]}
